Data provenance is PubChem BioAssay (NCATS).

Tested on: PC26
TEST SUMMARY: qHTS profiling for inhibitors of Plasmodium falciparum proliferation (AID 504749); also: nearly all actives have a fitted effect of over 60% in size
STATED CONDITIONS: P. falciparum in erythrocytes, SYBR Green DNA, 72 h; series mostly up to 28.7 µM
Inconclusive results are not listed. Active and inactive are the calls of the source. Calls follow the shape of the dose curve; as a rule, active = well fitted inhibition curve with a large enough effect; inconclusive = small, poorly fitted or top-dose-only effect; inactive = flat fitted curve, though single readings scatter.
Please state which outcome applies, choosing from active, inactive

Illustrative cases are given below, each with its answer.
# COMPOUND, CAT
rows = [
    ("CCOC(=O)c1c(N)sc2c1CCN(Cc1ccccc1)C2", "active"),
    ("CC(=O)O[C@]1(C(C)=O)CC[C@H]2[C@@H]3C=C(Cl)C4=CC(=O)CC[C@]4(C)[C@H]3CC[C@@]21C", "active"),
    ("Nc1nc(-c2ccccc2)c(Br)c(=O)[nH]1", "inactive"),
    ("Cc1cc(-c2ccccc2)nnc1NCCN1CCOCC1", "inactive"),
    ("CCCCCCCCCCCCSCCOCCO", "inactive"),
    ("CCNC(=O)NCc1cccc(Cl)c1", "inactive"),
]

Query: What was the test verdict on "COc1ccccc1N1CCN(CCCCNC(=O)c2ccc(-c3ccc(C(C)=O)cc3)cc2)CC1" ?
Reply: inactive

* * *

Test system: astro
TEST SUMMARY: Drug repurposing screens with cells derived from glioblastoma tumor samples (AID 1345199); also: nearly all actives have a fitted effect of over 40% in size
STATED CONDITIONS: viability, ATP luminescence, 48 h; series mostly up to 45.9 µM
Results filed as inconclusive are left out. Active and inactive are the calls of the source. Calls come from the whole dose curve; as a rule, active = well fitted inhibition curve with a large enough effect; inconclusive = small, poorly fitted or top-dose-only effect; inactive = flat fitted curve, though single readings scatter.
Please answer using one outcome listed in 1 for active, 0 for inactive

Worked examples, 5 molecules total:
# MOLECULE, TESTED ON, CAT
records = [
    ("C[N+]1(CC2COC(c3ccccc3)(C3CCCCC3)O2)CCCCC1 (stereo not drawn)", "astro", 0),
    ("O=C1C(CCS(=O)c2ccccc2)C(=O)N(c2ccccc2)N1c1ccccc1 (stereo not drawn)", "astro", 0),
    ("Cc1ncc(CO)c(C=O)c1O", "astro", 0),
    ("NCCNc1cccc2ccccc12", "astro", 0),
    ("COc1ccc(C(=O)c2ccccc2O)c(O)c1", "astro", 0),
]

Kindly review the next molecule as well.
Query: What outcome does the record of this test show for "CCCCNc1ccc(C(=O)OCCOCCOCCOCCOCCOCCOCCOCCOCCOC)cc1" ?
Reply: 0

* * *

Tested on: CP325
TEST SUMMARY: qHTS profiling for inhibitors of Plasmodium falciparum proliferation (AID 504749); also: nearly all actives have a fitted effect of over 60% in size
STATED CONDITIONS: P. falciparum in erythrocytes, SYBR Green DNA, 72 h; series mostly up to 28.7 µM
Records with an inconclusive call do not appear. Active and inactive are the calls of the source. Calls come from the whole dose curve; as a rule, active = well fitted inhibition curve with a large enough effect; inconclusive = small, poorly fitted or top-dose-only effect; inactive = flat fitted curve, though single readings scatter.
Hi! Could you answer with just one of these? active, inactive

Consider the following illustrative entries.
# CHEMICAL STRING, CAT
data = [
    ("CCN1/C(=C/C=C/c2sc3ccccc3[n+]2CC)Sc2ccccc21", "active"),
    ("C[C@@H](O)[C@H]1C(=O)N2C(C(=O)O)=C(S[C@@H]3CN[C@H](CNS(N)(=O)=O)C3)[C@H](C)[C@H]12", "inactive"),
    ("CN1CCN(C2=Nc3cc(F)ccc3Cc3ccccc32)CC1", "inactive"),
    ("NCCNC(=O)c1ccc(Cl)cn1", "inactive"),
]

Query: Which result was noted for this compound in the test: "NC(=O)n1c(O)c(C(=O)c2cccs2)c2cc(Cl)ccc21"
Reply: inactive

Query: Check the results log: what was the call for "COc1cc(C(=S)N2CCOCC2)ccc1O" ?
Reply: inactive

Query: Assay result, entry "O[C@@H](c1cc(C(F)(F)F)nc2c(C(F)(F)F)cccc12)[C@H]1CCCCN1" — outcome?
Reply: active

Query: Short answer needed: outcome of this test for "CCC(CC)(CC(=O)Nc1cccc(/C=C/c2nc(C3CCC3)cs2)c1)C(=O)O" ?
Reply: inactive

Query: Per the records of this test, what outcome belongs to "CCOc1ccccc1C(N)=O" ?
Reply: inactive

Query: Please indicate how the test categorized "NCCNc1cccc2ccccc12" .
Reply: inactive

Query: // return assay outcome for "COc1ccc(-c2cc(C(F)F)nn2-c2ccc(S(N)(=O)=O)cc2)cc1F"
Reply: inactive
